biological target: T1, recombinant human GM-CSF (human, UniProt P04141 18-144); assay: Gator (pro), Coating Ag
T1 construct: also called rhGM-CSF; CSF2
T1 sequence (P04141 18-144 limits assumed): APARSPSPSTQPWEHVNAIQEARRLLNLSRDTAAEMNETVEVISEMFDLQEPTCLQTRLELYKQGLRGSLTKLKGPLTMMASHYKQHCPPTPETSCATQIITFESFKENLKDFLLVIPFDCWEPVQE
Recorded Kd for the following binders
Numeric only. Scale: pM

Example binders with recorded Kd:
binder	reading.unit	Kd
1D2 SDR mutant Y103R/V32R (antibody, IgG1, V domains shown) VH: QVQLVQSGAEVKKPGASVKVSCEASGYTFTDKYLHWVRQAPGQGLEWMAWINPKSGGTFYAQNFKGRVTVTRDTSINTAYLELTSLRLDDTSTYYCARGRDYRDQGAADLWGQGTMVTVSS VL: DIQLTQSPSSLSASVGDRVTITCRASQGINSRLAWYQQKPGKAPKLLLYAASKLESGVPSRFSGSGSGTDYTLTISSLQPEDFGTYYCQQYYSPVRTFGQGTKVEIKR	pM	2.8
1D2 SDR mutant K54G/V32R (antibody, IgG1, V domains shown, also called 54G/32R) VH: QVQLVQSGAEVKKPGASVKVSCEASGYTFTDKYLHWVRQAPGQGLEWMAWINPGSGGTFYAQNFKGRVTVTRDTSINTAYLELTSLRLDDTSTYYCARGRDYYDQGAADLWGQGTMVTVSS VL: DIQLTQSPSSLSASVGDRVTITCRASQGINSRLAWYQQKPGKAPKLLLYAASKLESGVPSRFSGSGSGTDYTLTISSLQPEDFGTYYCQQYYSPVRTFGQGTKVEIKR	pM	0.746
antibody 1D2 (antibody, V domains shown, also called 1D2-WT; WT) VH: QVQLVQSGAEVKKPGASVKVSCEASGYTFTDKYLHWVRQAPGQGLEWMAWINPKSGGTFYAQNFKGRVTVTRDTSINTAYLELTSLRLDDTSTYYCARGRDYYDQGAADLWGQGTMVTVSS VL: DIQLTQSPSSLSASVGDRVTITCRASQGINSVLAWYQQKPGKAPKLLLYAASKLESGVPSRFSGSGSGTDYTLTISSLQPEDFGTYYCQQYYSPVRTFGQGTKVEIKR	pM	1.57

Now for the binder whose Kd we want.
In: Could you tell me which Kd is on file for 1D2 SDR mutant Y103N/V32R (antibody, IgG1, V domains shown) VH: QVQLVQSGAEVKKPGASVKVSCEASGYTFTDKYLHWVRQAPGQGLEWMAWINPKSGGTFYAQNFKGRVTVTRDTSINTAYLELTSLRLDDTSTYYCARGRDYNDQGAADLWGQGTMVTVSS VL: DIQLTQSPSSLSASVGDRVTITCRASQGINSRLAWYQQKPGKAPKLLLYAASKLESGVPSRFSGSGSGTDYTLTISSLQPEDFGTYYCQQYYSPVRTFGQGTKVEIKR ?
Out: 5.84
